Target: rat BZP site
Experiment: NIMH PDSP binding screen

{"COMPOUND": "CNc1cc(-c2csc(N(C)C(=O)c3ccc(F)cc3)n2)ncn1 [compound 11]", "Ki": "> 10 µM"}
